Data origin: patent US20060035332

Molecular target: human OT7T022 receptor (human)
Sequence (chain, as listed by the source): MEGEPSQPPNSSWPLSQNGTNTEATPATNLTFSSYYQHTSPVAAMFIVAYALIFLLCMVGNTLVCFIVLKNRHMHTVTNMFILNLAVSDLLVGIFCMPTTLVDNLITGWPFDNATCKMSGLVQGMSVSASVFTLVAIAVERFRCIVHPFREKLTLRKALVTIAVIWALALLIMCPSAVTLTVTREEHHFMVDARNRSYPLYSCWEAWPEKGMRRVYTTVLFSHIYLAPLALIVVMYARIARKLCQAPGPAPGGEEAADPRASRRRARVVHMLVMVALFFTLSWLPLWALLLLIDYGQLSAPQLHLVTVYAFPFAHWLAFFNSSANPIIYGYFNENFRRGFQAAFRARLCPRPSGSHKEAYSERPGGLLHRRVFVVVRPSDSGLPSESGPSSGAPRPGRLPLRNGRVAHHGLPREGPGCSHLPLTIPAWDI
Assay: competition
Settings: modification not given
Outcome measure: IC50 (nM)

(1) PNLPQRF [hRFRP-3(7)]
(2) NLPQRF [hRFRP-3(6)]
Q: Dear colleague, could you let me know whether 1 or 2 has the lower recorded IC50? Thanks. Respond using the label that marks the chosen record.
A: 1
(1: 0.62 nM, 2: 2.6 nM)
